Where do the numbers come from? From patent US20190177417A1.

Target: T1, Axl protein (human, UniProt P30530 26-451)
T1 construct: extracellular domain; also called human Axl; hAxl
T1 sequence (looked up): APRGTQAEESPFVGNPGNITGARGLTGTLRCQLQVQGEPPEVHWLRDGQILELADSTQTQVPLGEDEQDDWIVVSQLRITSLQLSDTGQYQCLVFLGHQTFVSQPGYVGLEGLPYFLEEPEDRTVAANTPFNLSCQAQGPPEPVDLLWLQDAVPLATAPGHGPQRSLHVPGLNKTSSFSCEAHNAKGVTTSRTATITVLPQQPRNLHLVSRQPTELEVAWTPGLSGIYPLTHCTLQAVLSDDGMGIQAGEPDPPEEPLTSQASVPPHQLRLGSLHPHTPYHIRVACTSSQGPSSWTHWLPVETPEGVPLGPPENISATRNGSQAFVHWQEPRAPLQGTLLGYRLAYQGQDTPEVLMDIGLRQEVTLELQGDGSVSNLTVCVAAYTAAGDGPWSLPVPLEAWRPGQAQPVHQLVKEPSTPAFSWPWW
Experiment: ELISA, 1:3 dilution, pH 6.0 over pH 7.4
property: Affinity ELISA CPE mutant ratio (1:3, pH 6.0/7.4)

binder: LC-A051I (antibody, V domains shown) VH: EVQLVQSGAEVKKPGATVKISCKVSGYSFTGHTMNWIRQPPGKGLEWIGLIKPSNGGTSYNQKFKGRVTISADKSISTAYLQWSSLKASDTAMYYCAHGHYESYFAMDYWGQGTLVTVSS VL: DIQMTQSPSSLSASVGDRVTITCKASQDVSSAVAWYQQKPGQAPRLLIYWISTRHTGVPSRFSGSGSGTEFTLTISSLQPDDFATYYCQEHFSTPLTFGQGTKVEIK
meas_value: 2.24 ratio

binder: LC-P095H (antibody, V domains shown) VH: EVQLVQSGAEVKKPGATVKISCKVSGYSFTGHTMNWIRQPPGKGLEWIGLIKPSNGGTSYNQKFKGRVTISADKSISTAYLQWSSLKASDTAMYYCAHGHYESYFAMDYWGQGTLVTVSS VL: DIQMTQSPSSLSASVGDRVTITCKASQDVSSAVAWYQQKPGQAPRLLIYWASTRHTGVPSRFSGSGSGTEFTLTISSLQPDDFATYYCQEHFSTHLTFGQGTKVEIK
meas_value: 2.5 ratio
